The origin of these recorded values is the CheMixHub viscosity set.

Reported viscosity values for the following compounds.
- experimental_details: xn = mol fraction of the nth substance listed
- recorded_conditions: 298.15 K; 101 kPa; x1 = 0.5
± gives the uncertainty stated by the source.

[
  {
    "compound": "CCOC(=O)c1ccc(O)cc1 + CCCCCOC(C)=O",
    "viscosity": "1.66 ± 0.02 mPa·s"
  },
  {
    "compound": "Oc1ccccc1Cl + CC(C)=O",
    "viscosity": "1.666 ± 0.022 mPa·s"
  },
  {
    "compound": "Oc1ccccc1Cl + CCCCCOC(C)=O",
    "viscosity": "1.202 ± 0.012 mPa·s"
  },
  {
    "compound": "Oc1ccccc1Cl + CCO",
    "viscosity": "1.452 ± 0.014 mPa·s"
  }
]

====

- recorded_conditions: 318.15 K; 100 kPa
assay_metric: viscosity (mPa·s)

[
  {
    "item_smiles": "CC(C)c1ccccc1",
    "numeric_result": 0.623
  },
  {
    "item_smiles": "CCCCOC(C)=O",
    "numeric_result": 0.51
  },
  {
    "item_smiles": "Clc1ccccc1Cl",
    "numeric_result": 0.974
  },
  {
    "item_smiles": "CN1CCCN(C)C1=O",
    "numeric_result": 2.064
  }
]

====

- recorded_conditions: 313.15 K; 100 kPa
Reported viscosity values for the following compounds.
assay_metric: viscosity (mPa·s)

[
  {
    "item_smiles": "Clc1ccccc1Cl",
    "unit_label": "mPa·s",
    "numeric_result": 1.054
  },
  {
    "item_smiles": "CCCCOC(C)=O",
    "unit_label": "mPa·s",
    "numeric_result": 0.55
  },
  {
    "item_smiles": "CN1CCCN(C)C1=O",
    "unit_label": "mPa·s",
    "numeric_result": 2.266
  },
  {
    "item_smiles": "OCCc1ccccc1",
    "unit_label": "mPa·s",
    "numeric_result": 6.335
  }
]

====

- recorded_conditions: 323.15 K; 101 kPa
Reported viscosity values for the following molecules.
assay_metric: viscosity (mPa·s)

[
  {
    "item_smiles": "CC(C)c1ccccc1",
    "assay_metric": "viscosity",
    "numeric_result": 0.5447
  },
  {
    "item_smiles": "CCCCOC(C)=O",
    "assay_metric": "viscosity",
    "numeric_result": 0.507
  },
  {
    "item_smiles": "N#CCCl",
    "assay_metric": "viscosity",
    "numeric_result": 0.616
  },
  {
    "item_smiles": "Oc1ccccc1Cl",
    "assay_metric": "viscosity",
    "numeric_result": 1.871
  }
]

====

Reported viscosity values for the following molecules.
- recorded_conditions: 308.15 K; 100 kPa
± gives the uncertainty stated by the source.

[
  {
    "item_smiles": "OCCc1ccccc1",
    "viscosity": "7.653 ± 0.46 mPa·s"
  },
  {
    "item_smiles": "CC(C)c1ccccc1",
    "viscosity": "0.692 ± 0.007 mPa·s"
  },
  {
    "item_smiles": "CN1CCCN(C)C1=O",
    "viscosity": "2.501 ± 0.1 mPa·s"
  },
  {
    "item_smiles": "Clc1ccccc1Cl",
    "viscosity": "1.146 ± 0.01 mPa·s"
  }
]

====

- recorded_conditions: 318.15 K; 101 kPa

[
  {
    "item_smiles": "CC(C)c1ccccc1",
    "unit_label": "mPa·s",
    "viscosity": 0.5767
  },
  {
    "item_smiles": "Oc1ccccc1Cl",
    "unit_label": "mPa·s",
    "viscosity": 2.038
  },
  {
    "item_smiles": "CCCOC(=O)c1ccccc1",
    "unit_label": "mPa·s",
    "viscosity": 1.574
  },
  {
    "item_smiles": "Clc1ccccc1Cl",
    "unit_label": "mPa·s",
    "viscosity": 0.974
  },
  {
    "item_smiles": "C[n+]1ccn(CCO)c1.O=C([O-])C(F)(F)C(F)(F)C(F)(F)C(F)(F)F",
    "unit_label": "mPa·s",
    "viscosity": 190.8
  }
]

====

Reported viscosity values for the following compounds.
- recorded_conditions: 298.15 K; 100 kPa

[
  {
    "item_smiles": "CCCN",
    "unit_label": "mPa·s",
    "viscosity": 0.365
  },
  {
    "item_smiles": "CN1CCCN(C)C1=O",
    "unit_label": "mPa·s",
    "viscosity": 3.11
  },
  {
    "item_smiles": "CCCCOC(C)=O",
    "unit_label": "mPa·s",
    "viscosity": 0.683
  },
  {
    "item_smiles": "CC(C)c1ccccc1",
    "unit_label": "mPa·s",
    "viscosity": 0.772
  }
]

====

- recorded_conditions: 298.15 K; 101 kPa
assay_metric: viscosity (mPa·s)

[
  {
    "item_smiles": "CCCOC(=O)c1ccccc1",
    "numeric_result": 2.357
  },
  {
    "item_smiles": "CCCCCCCC(=O)O",
    "numeric_result": 5.16
  },
  {
    "item_smiles": "C[n+]1ccn(CCO)c1.O=C([O-])C(F)(F)C(F)(F)C(F)(F)C(F)(F)F",
    "numeric_result": 712.8
  },
  {
    "item_smiles": "C1COCOC1",
    "numeric_result": 1.057
  },
  {
    "item_smiles": "CN1CCCN(C)C1=O",
    "numeric_result": 2.95
  },
  {
    "item_smiles": "N#CCCl",
    "numeric_result": 0.863
  },
  {
    "item_smiles": "OCCc1ccccc1",
    "numeric_result": 10.9
  },
  {
    "item_smiles": "Clc1ccccc1Cl",
    "numeric_result": 1.22
  }
]
